Sourced from ChEMBL document CHEMBL1150212

# Test system: A549
# assayRemarks: Cytotoxicity against human A549 cells by tetrazolium salt-based colorimetric assay
# Assay type: functional
# assayContext: read-out: ED50 (the source's name)
readoutKind: EC50

{"smilesCode": "O=C(O[C@@H]1C[C@](O)(C(=O)O)C[C@@H](OC(=O)c2cc(O)c(O)c(O)c2)[C@H]1OC(=O)c1cc(O)c(O)c(O)c1)c1cc(O)c(O)c(O)c1", "readoutKind": "EC50", "result": "> 10 µg/mL"}

**Q:** Given O=C(OC[C@H]1O[C@@H](OC(=O)c2cc(O)c(O)c(O)c2)[C@H](OC(=O)c2cc(O)c(O)c(O)c2)[C@@H](OC(=O)c2cc(O)c(O)c(O)c2)[C@@H]1OC(=O)c1cc(O)c(O)c(O)c1)c1cc(O)c(O)c(O)c1 , state its recorded EC50.
**A:** > 10 µg/mL

---

Below, each entry is listed alongside its reported EC50.
# assayRemarks: Cytotoxicity against human […] cells by tetrazolium salt-based colorimetric assay
# Assay type: functional
# assayContext: read-out: ED50 (the source's name)
*1 amine or outer side, *2 acyl side, *3 side chain or, on linkers, in order; H or OH if unused. Where a SMILES comes first, the peptide text is derived from it. Bridges are numbered along the chain shown (N, C = ends). Roman numbers before positions name the chains, in order. [ ]: non-standard residue; d: D form. Actinocin(1to9) = Cc1c2oc3c(C)ccc(C(=O)[*:2])c3nc-2c(C(=O)[*:1])c(N)c1=O; NMeV = CN[C@H](C(=O)O)C(C)C; Sar = CNCC(=O)O

{"compound": "Cc1c2oc3c(C)ccc(C(=O)N[C@@H]4C(=O)N[C@H](C(C)C)C(=O)N5CCC[C@H]5C(=O)N(C)CC(=O)N(C)[C@@H](C(C)C)C(=O)O[C@@H]4C)c3nc-2c(C(=O)N[C@@H]2C(=O)N[C@H](C(C)C)C(=O)N3CCC[C@H]3C(=O)N(C)CC(=O)N(C)[C@@H](C(C)C)C(=O)O[C@@H]2C)c(N)c1=O [DACTINOMYCIN] (I: T[dV]P[Sar][NMeV] / II: T[dV]P[Sar][NMeV]; ester I:1-I:C, II:1-II:C; linker I:N-II:N via Actinocin(1to9))", "EC50": "< 0.01 mg/L"}
{"compound": "O=C(O[C@@H]1O[C@@H]2COC(=O)c3cc(O)c(O)c(O)c3-c3c(cc(O)c(O)c3O)C(=O)O[C@H]([C@H]1OC(=O)c1cc(O)c(O)c(O)c1)[C@@H]2OC(=O)c1cc(O)c(O)c(O)c1)c1cc(O)c(O)c(O)c1 [PUNICAFOLIN]", "EC50": "> 10 mg/L"}
{"compound": "O=C(OC[C@H]1OC(O)[C@@](O)(COC(=O)c2cc(O)c(O)c(O)c2)[C@@H]1O)c1cc(O)c(O)c(O)c1 (stereo not given in full) [HAMAMELITANNIN]", "EC50": "> 10 mg/L"}
{"compound": "O=C(O[C@@H]1O[C@H](CO)[C@@H](O)[C@H](O)[C@H]1O)c1cc(O)c(O)c(O)c1", "EC50": "> 10 mg/L"}

Below: the item to evaluate.
**Q:** Given O=C(O[C@H]1[C@H](O)C[C@](O)(C(=O)O)C[C@H]1O)c1cc(O)c(O)c(O)c1 , state its recorded EC50.
**A:** > 10 mg/L
